- TESTED_ON: Hepatocyte growth factor receptor (Homo sapiens)
- TEST_CONTEXT: at 1 µM
MEASUREMENT_TYPE: residual activity
Note to self: number, then unit, no commentary.

Below are worked cases with known answers.
MOLECULE	residual activity
CCN(CC)C(=O)c1ccc(Nc2nc(OCC3CCCCC3)c3nc[nH]c3n2)cc1	45%
Ic1cccc(CSc2nnc(-c3ccncc3)o2)c1	126%
CCN(CC)CCCCN1c2ccccc2Oc2ccc(Cl)cc21	128%
Nc1nc(Nc2ccc(S(N)(=O)=O)cc2)nn1C(=S)Nc1c(F)cccc1F	3%
O=C1NC(=O)/C(=C/c2ccc3c(c2)OC(F)(F)O3)S1	87%
CO[C@H]1C[C@@H]2CC[C@@H](C)[C@@](O)(O2)C(=O)C(=O)N2CCCC[C@H]2C(=O)O[C@H]([C@H](C)C[C@@H]2CC[C@@H](O)[C@H](OC)C2)CC(=O)[C@H](C)/C=C(\C)[C@@H](O)[C@@H](OC)C(=O)[C@H](C)C[C@H](C)/C=C/C=C/C=C/1C	95%
NC(=O)c1ccc2[nH]c(-c3ccc(Oc4ccc(Cl)cc4)cc3)nc2c1	128%
COc1ccc(OC)c2c(=S)c3ccccc3[nH]c12	118%

Could you now look at the following molecule, please?
Task item: Retrieve residual activity on Hepatocyte growth factor receptor (Homo sapiens); query CC(C)n1cnc2/c(=N/c3cccc(Cl)c3)nc(NCCO)[nH]c21
Reply: 87%
